Entries and their measured growth follow.
Test system: NCI-H322M lung
procedure_summary: NCI-60 one-dose screen, 48 h (100 = growth as untreated, 0 = no growth, -100 = all killed)
experimental_conditions: 10 µM unless noted
Compounds without any hit were thinned out: in the full panel of roughly 83,000, 20% have a hit.
readout_kind: growth (%)

[[record]]
molecule = "CC(=O)N1CC(Nc2ccc(OC(F)(F)F)cc2)=CC1=O"
numeric_value = 43.3

[[record]]
molecule = "O=C(Nc1cccc2[nH]c(C(F)(F)F)nc12)c1ccc(Br)cc1F"
numeric_value = 57

[[record]]
molecule = "NC1=CSC2=N/C(=C\\c3ccc(Cl)cc3)C(=O)N12"
numeric_value = 95.7

[[record]]
molecule = "C=C1CCC2C3(C)COC(c4ccccc4Br)OC3CCC2(C)C1C/C=C1/C(=O)OCC1OC(C)=O (stereo not given)"
numeric_value = 21.7

[[record]]
molecule = "COc1ccc(C(=O)c2sc3nc4c(c(C(F)(F)F)c3c2N)CN(C(C)=O)CC4)cc1OC"
numeric_value = 93.1


----------
Entries and their measured growth follow.
Tested on: OVCAR-5 ovarian
procedure_summary: NCI-60 one-dose screen, 48 h (100 = growth as untreated, 0 = no growth, -100 = all killed)
experimental_conditions: 10 µM unless noted
The panel holds about 83,000 compounds, 20% with a hit somewhere; the sample as a whole holds those more often.
readout_kind: growth (%)

[[record]]
compound = "COc1ccccc1-c1ccc2c(N)c(C(=O)c3ccc4c(c3)OCO4)sc2n1"
numeric_value = 87.7

[[record]]
compound = "COc1ccc(-c2nc(Nc3cc(C)[nH]n3)c3ccccc3n2)cc1"
numeric_value = 59.8

[[record]]
compound = "O=C1C2CC=CCC2C(=O)N1CNc1ccc(Cl)cc1 (stereo not drawn)"
numeric_value = 87.6


----------
Test system: SR leukemia
procedure_summary: NCI-60 one-dose screen, 48 h
experimental_conditions: 10 µM unless noted
The panel holds about 83,000 compounds, 20% with a hit somewhere; the sample as a whole holds those more often. Active and inactive are the calls of the source. How the source made its calls: active means growth percent below 10; inactive means the rest.
Outcome codes: active, inactive

[[record]]
compound = "CCN(C(=O)CN1CCN(c2cc3c(cc2F)c(=O)c(C(=O)O)cn3C2CC2)CC1)c1nc(-c2ccc(OC)cc2)cs1"
class_label = "inactive"

[[record]]
compound = "Cn1c2ccccc2c2c3c(c4c5ccccc5n(CCCCCC#N)c4c21)C(=O)N(O)C3=O"
class_label = "active"

[[record]]
compound = "O=C(CN1CCOCC1)Nc1ccc(Cn2nnc3c2C(=O)c2nnn(Cc4ccc(NC(=O)CN5CCOCC5)cc4)c2C3=O)cc1"
class_label = "active"

[[record]]
compound = "COc1cnc2c(c1)C(=O)c1c-2n(CCCBr)c(=O)c2cc([N+](=O)[O-])ccc12"
class_label = "active"

[[record]]
compound = "C/C=C/C(N)=O"
class_label = "inactive"

[[record]]
compound = "C=C1CC2(OC1=O)C(=O)Nc1ccccc12 (stereo unspecified)"
class_label = "active"


----------
System: SK-OV-3 ovarian
procedure_summary: NCI-60 one-dose screen, 48 h (100 = growth as untreated, 0 = no growth, -100 = all killed)
experimental_conditions: 10 µM unless noted
Compounds without any hit were thinned out: in the full panel of roughly 83,000, 20% have a hit.
Entries and their measured growth follow.
readout_kind: growth (%)

[[record]]
molecule = "CCC(c1ccccc1)C(CC)c1ccc(O)c(O)c1 (stereo not drawn)"
numeric_value = 112

[[record]]
molecule = "CCN(CC)CCCC(C)NCCCNc1cccc2cccnc12 (stereo not drawn)"
numeric_value = 89.2

[[record]]
molecule = "CC[C@H](Nc1nc(N)nc(C)c1C#N)c1nc2cccc(NCc3ccc(C(=O)NO)cc3)c2c(=O)n1-c1ccccc1"
numeric_value = -12

[[record]]
molecule = "C(=N\\Nc1nnn(Cc2ccccc2)n1)/c1ccccc1"
numeric_value = 35.9

[[record]]
molecule = "CCCCCCCCCCCCCCCCNCCC[C@@H](C)[C@H]1CC[C@H]2[C@@H]3[C@H](OCCCN)C[C@@H]4C[C@H](OCCCN)CC[C@]4(C)[C@H]3C[C@H](OCCCN)[C@]12C"
numeric_value = -45.7

[[record]]
molecule = "CC/C=C\\C[C@H](O)C/C=C1/C(=O)C=C[C@@H]1C/C=C\\CCCC(=O)NC(C)C"
numeric_value = 21.4

[[record]]
molecule = "CN1CCN(Cc2ccc(NC(=O)c3[nH]ncc3Nc3ncnc4sccc34)cc2)CC1"
numeric_value = 31.4

[[record]]
molecule = "CC(C)(C)n1cc(-c2ccnc(NCCCNS(=O)(=O)c3cccc4ccccc34)c2)c(-c2cccc(O)c2)n1"
numeric_value = 71.4

[[record]]
molecule = "O=C(CO[N+](=O)[O-])Nc1ccc(C(=O)/C=C/c2ccc3c(c2)OCO3)cc1"
numeric_value = 111

[[record]]
molecule = "Cc1ccc(Nc2nc(N)nc(Nc3ccc4ccccc4c3)n2)cc1"
numeric_value = 58.4

[[record]]
molecule = "CCN(C(=O)CN1CCN(c2cc3c(cc2F)c(=O)c(C(=O)O)cn3C2CC2)CC1)c1nc(-c2ccc(OC)cc2)cs1"
numeric_value = 97.1

[[record]]
molecule = "O=C(O)c1ccc2c(c1Sc1ccccc1)C(=O)c1ccccc1C2=O"
numeric_value = 101

[[record]]
molecule = "O=C1OC2C(I)C3CC2C1C3c1ccccc1 (stereo not drawn)"
numeric_value = 116

[[record]]
molecule = "Cc1cc(=O)oc2cc(Oc3nc(-c4ccc(Cl)cc4)cn4c(-c5ccc(Cl)cc5)cnc34)ccc12"
numeric_value = 103

[[record]]
molecule = "OC(c1cccc(C(F)(F)F)c1)c1cnccc1NC1CCCCCC1 (stereo not drawn)"
numeric_value = 71.4

[[record]]
molecule = "CC(=O)O[C@H]1CC[C@]2(C)[C@H]3CC[C@@H]4[C@H]5[C@H](C(C)C)CC[C@]5(C(=O)OCC(CO)(CO)N=C(N)N)CC[C@@]4(C)[C@]3(C)CC[C@H]2C1(C)C"
numeric_value = 91.2

[[record]]
molecule = "COc1cccc(/C=C\\C(=O)c2ccccc2)c1"
numeric_value = 107

[[record]]
molecule = "CCn1cc2c(cc1=O)-c1nc3ccccc3c3ccnc(c13)C2=O"
numeric_value = 45.8


----------
System: BT-549 breast
procedure_summary: NCI-60 one-dose screen, 48 h (100 = growth as untreated, 0 = no growth, -100 = all killed)
experimental_conditions: 10 µM unless noted
The panel holds about 83,000 compounds, 20% with a hit somewhere; the sample as a whole holds those more often.
readout_kind: growth (%)

[[record]]
compound = "O=C(O)c1cccc2c1-c1ccccc1C2=O"
target_or_test_system = "BT-549 breast"
readout_kind = "growth"
numeric_value = 85.8

[[record]]
compound = "O=C1OC2C(I)C3CC2C1C3c1ccccc1 (stereo not given)"
target_or_test_system = "BT-549 breast"
readout_kind = "growth"
numeric_value = 152

[[record]]
compound = "COc1ccc(CN(c2ccc(C)cc2)C2OC(=O)c3ccccc32)cc1OC (stereo not given)"
target_or_test_system = "BT-549 breast"
readout_kind = "growth"
numeric_value = 106

[[record]]
compound = "CCN(CC)CCC(=O)Nc1ccc(Cn2nnc3c2C(=O)c2nnn(Cc4ccc(NC(=O)CCN(CC)CC)cc4)c2C3=O)cc1"
target_or_test_system = "BT-549 breast"
readout_kind = "growth"
numeric_value = -94.2

[[record]]
compound = "COc1ccc(-c2c3c(nc4n[nH]c(-c5ccc(Cl)cc5)c24)-c2ccccc2C(=O)C3=O)cc1"
target_or_test_system = "BT-549 breast"
readout_kind = "growth"
numeric_value = 20.5


----------
Test system: OVCAR-8 ovarian
procedure_summary: NCI-60 one-dose screen, 48 h (100 = growth as untreated, 0 = no growth, -100 = all killed)
experimental_conditions: 10 µM unless noted
This is part of a sample that, as a whole, favours compounds with a hit. Of some 83,000 tested, about 20% had one in any assay.
Entries and their measured growth follow.
readout_kind: growth (%)

[[record]]
molecule = "CSc1ncnc2c1ncn2C1CCCO1 (stereo unspecified)"
readout_kind = "growth"
numeric_value = 109

[[record]]
molecule = "O=C(CO[N+](=O)[O-])Nc1ccc(C(=O)/C=C/c2ccc3c(c2)OCO3)cc1"
readout_kind = "growth"
numeric_value = 75.8

[[record]]
molecule = "O=C1CC(c2nc3ccccc3s2)CN1C1CCCCC1 (stereo unspecified)"
readout_kind = "growth"
numeric_value = 95.4

[[record]]
molecule = "O=C(COCc1c(-c2ccccc2)no[n+]1[O-])Nc1ccc(C(=O)/C=C/c2ccc3c(c2)OCO3)cc1"
readout_kind = "growth"
numeric_value = 87.5

[[record]]
molecule = "CC/C(=C(\\c1ccccc1)c1ccc(OCCNC)cc1)c1ccccc1"
readout_kind = "growth"
numeric_value = -49.6

[[record]]
molecule = "c1ccc(Sc2ncnc3ccccc23)cc1"
readout_kind = "growth"
numeric_value = 82.1

[[record]]
molecule = "CS(=O)(CCCCN=C=S)=NC(=O)c1c(F)c(F)c(F)c(F)c1F (stereo unspecified)"
readout_kind = "growth"
numeric_value = 97.3

[[record]]
molecule = "CC(C)(C)n1cc(-c2ccnc(NCCCNS(=O)(=O)c3cccc4ccccc34)c2)c(-c2cccc(O)c2)n1"
readout_kind = "growth"
numeric_value = 30.6

[[record]]
molecule = "COc1cccc(-c2cn3c(ccc4ccccc43)n2)c1"
readout_kind = "growth"
numeric_value = 45.7

[[record]]
molecule = "O=C(O)c1c([N+](=O)[O-])cnc2ccccc12"
readout_kind = "growth"
numeric_value = 96.2

[[record]]
molecule = "CCN(CC)CCCCNc1ccc(NCCCCN(CC)CC)c2c1C(=O)c1ccccc1C2=O"
readout_kind = "growth"
numeric_value = 72.9

[[record]]
molecule = "O=[N+]([O-])c1cccc(-c2nc3sccn3c2-c2ccnc(NCCNS(=O)(=O)c3ccc(C(F)(F)F)cc3)n2)c1"
readout_kind = "growth"
numeric_value = 26.1

[[record]]
molecule = "CCNS(=O)(=O)c1ncnc2nc[nH]c12"
readout_kind = "growth"
numeric_value = 114

[[record]]
molecule = "COc1ncc(-c2ccc3ncnc(Nc4cccc(Cl)c4)c3c2)cc1NS(C)(=O)=O"
readout_kind = "growth"
numeric_value = 45.5

[[record]]
molecule = "COc1cc(/C=N\\NC(=O)CN2CCN(c3cc4c(cc3F)c(=O)c(C(=O)N/N=C/c3ccc(O)c(OC)c3)cn4C3CC3)CC2)ccc1O"
readout_kind = "growth"
numeric_value = 61.7

[[record]]
molecule = "Oc1ccccc1N=Cc1c(O)ccc2ccccc12"
readout_kind = "growth"
numeric_value = 97.8

